Reported Property: melting point

Value lookup for melting point; key = CCOc1ccc2[nH]cc(C(=O)NCC3CCCO3)c(=O)c2n1 (stereo not shown) 235 to 237 °C

Value lookup for melting point; key = CCOc1ccc2[nH]cc(C(=O)NCc3ccc4c(c3)OCO4)c(=O)c2n1 190 °C

Value lookup for melting point; key = O=C(NCc1ccccc1F)c1c[nH]c2ccc(N3CCOCC3)nc2c1=O 137 to 139 °C

Value lookup for melting point; key = CCSCCNC(=O)c1c[nH]c2ccc(OC)nc2c1=O 257 to 259 °C (dec.)
